Values from patent US8324390B2

tested on: caterpillars of the armyworm (Spodoptera frugiperda); assay: Spodoptera frugiperda test (SPODFR spray treatment); format: in vivo; conditions: Spodoptera frugiperda, in Zea mays, foliar, read-out: effect in % (caterpillars killed)
ENDPOINT: pest or weed control at 100 g/ha

[Q] Recorded pest or weed control at 100 g/ha for Cc1cc(C#N)cc(C(=O)NC2CC2)c1NC(=O)c1cc(Cn2nnc(C(F)(F)C(F)(F)C(F)(F)F)n2)nn1-c1ncccc1Cl [Example 113] , please?
[A] ≥ 80%

[Q] Okay, and Cc1cc(C#N)cc(C(=O)NCC2CC2(Cl)Cl)c1NC(=O)c1cc(Cn2nnc(C(F)(F)F)n2)nn1-c1ncccc1Cl (stereo not shown) [Example 88] ?
[A] ≥ 80%

[Q] Okay, and CNC(=O)c1cc(C#N)cc(C)c1NC(=O)c1cc(Cn2nnc(C(F)(F)C(F)(F)C(F)(F)F)n2)nn1-c1ncccc1Cl [Example 5] ?
[A] ≥ 80%

[Q] Okay, and CNC(=O)c1cc(C)cc(C)c1NC(=O)c1cc(Cn2nnnc2C(F)(F)F)nn1-c1ncccc1Cl [Example 178] ?
[A] ≥ 80%
